Each record here notes measured aptazyme ON/OFF ratio.
B1: Pistol ribozyme (parent)
chain: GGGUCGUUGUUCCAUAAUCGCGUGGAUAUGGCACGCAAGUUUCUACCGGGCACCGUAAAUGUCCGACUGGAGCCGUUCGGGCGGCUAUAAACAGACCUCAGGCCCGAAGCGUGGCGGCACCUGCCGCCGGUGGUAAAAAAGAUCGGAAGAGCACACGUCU

- Variants of: B1
- MEASUREMENT DESCRIPTION: aptazyme ON/OFF ratio, guanine; higher = stronger switching; co-transcriptional cleavage with and without guanine
The answer should be written as a number, with no unit following it.

Below are worked cases with known answers.
VARIANT NAME | aptazyme ON/OFF ratio
U8A G9A U10G U11G C13U | 1.05
U7C G9C U10A U11C C12U | 1.04
U7G U8C G9A U10A U11C | 1.11

Endpoint output: aptazyme ON/OFF ratio of U8A G9A U10G C12U . Value? 1.5

Sample U7A U8A G9U U11C C12A C13A — what was its aptazyme ON/OFF ratio? 1.12

Which aptazyme ON/OFF ratio is listed for U7C U8A G9C U11C C12A C13G ? 1.07

Name the reported aptazyme ON/OFF ratio value associated with the variant U7A G9U U10C U11C C12U C13A 1.06

Which aptazyme ON/OFF ratio value is on record for U7C G9C U10A U11G C12A C13A ? 1.15

Record request: aptazyme ON/OFF ratio value, item U7A G9U U10C C12G C13G 1.29
